Reference source for all entries: patent US20180339016A1

System: E. coli ATCC 25922
experiment-description: Antibiotic interaction assay (Wimley), 2/3 broth microdilution: MIC alone, MIC of combination, FICI
Assay type: cell-based
experimental-parameters: labelled peptide + colistin
If the reported FICI of peptide with colistin equals or exceeds 0.5, assign 1 (yes). If not, assign 0 (no).

Inquiry: Dear colleague, could you confirm whether KLR8KLLKKPLS5LLK [st 3, 11] has FICI of peptide with colistin at or above 0.5?
Reply text: 1 (yes)

Inquiry: Form field: FICI of peptide with colistin at least 0.5? Entry: KLLKLLKKDLKLLK [KL L9D]
Reply text: 0 (no)

Inquiry: Is the recorded value of FICI of peptide with colistin equal to or greater than 0.5 for this substance? KLLKLLCKLCKLLK [7, 10 kink]
Reply text: 1 (yes)

Inquiry: Does FICI of peptide with colistin meet or surpass 0.5 for KLLKLLKKPLKLLK [KL-L9P] ?
Reply text: 0 (no)

Inquiry: Reported FICI of peptide with colistin reaches at least 0.5 for KLLKLLKCLLKCLK [8, 12 kink] ?
Reply text: 1 (yes)

* * *

Tested on: E. coli ATCC 25922
experiment-description: Antibiotic interaction assay (Wimley), 2/3 broth microdilution: MIC alone, MIC of combination, FICI
Format: cell-based
experimental-parameters: labelled peptide + colistin + linezolid
value-kind: FICIPeptide
Please reply with the value in numeric form only.

Inquiry: GET /values?readout=FICIPeptide&item= KLR8KLLKKPLS5LLK [st 3, 11]
Reply text: 0.11

Inquiry: Name the reported FICIPeptide value associated with the substance LKKLLKPPKKLLKL [LK-L7PL8P]
Reply text: 0.07

Inquiry: Bench note: what FICIPeptide did KLLKLLCKLCKLLK [7, 10 kink] show?
Reply text: 0.37

Inquiry: Name the reported FICIPeptide value associated with the substance KLLKLLKCLLKCLK [8, 12 kink]
Reply text: 0.42

* * *

System: E. coli ATCC 25922
experiment-description: Antibiotic interaction assay (Wimley), 2/3 broth microdilution: MIC alone, MIC of combination, FICI
Format: cell-based
experimental-parameters: labelled drug + KL-L9P
value-kind: FICI of drug with KL-L9P
Please give the numeric answer without any surrounding text.

Inquiry: // lookup FICI of drug with KL-L9P for O=c1c(O)c(-c2ccc(O)c(O)c2)oc2cc(O)cc(O)c12 [quercetin]
Reply text: 0.35

Inquiry: So what's the measured FICI of drug with KL-L9P for this one? CCC(C)(C)C(=O)O[C@H]1C[C@@H](C)C=C2C=C[C@H](C)[C@H](CC[C@@H]3C[C@@H](O)CC(=O)O3)[C@H]21 [simvastatin]
Reply text: 0.18

Inquiry: FICI of drug with KL-L9P lookup needed for CC(C)c1c(C(=O)Nc2ccccc2)c(-c2ccccc2)c(-c2ccc(F)cc2)n1CC[C@@H](O)C[C@@H](O)CC(=O)O [atorvastatin] , thanks.
Reply text: 0.60

Inquiry: Quick one: FICI of drug with KL-L9P of Oc1ccc(C=Cc2cc(O)cc(O)c2)cc1 [resveratrol] ?
Reply text: 0.25

Inquiry: What does the data say about its FICI of drug with KL-L9P? Entry: COc1cc(/C=C/C(=O)CC(=O)/C=C/c2ccc(O)c(OC)c2)ccc1O [curcumin]
Reply text: 0.30

Inquiry: Suppose we examine the compound CC(C)Cc1ccc([C@@H](C)C(=O)O)cc1 [(R)-ibuprofen] ; what FICI of drug with KL-L9P value has been reported?
Reply text: 0.27

Inquiry: Which FICI of drug with KL-L9P value is on record for CC(C)Cc1ccc([C@H](C)C(=O)O)cc1 [(S)-ibuprofen] ?
Reply text: 0.23

Inquiry: // FICI of drug with KL-L9P lookup, key: CC[C@H](C)C(=O)O[C@H]1C[C@@H](C)C=C2C=C[C@H](C)[C@H](CC[C@@H]3C[C@@H](O)CC(=O)O3)[C@H]21 [lovastatin]
Reply text: 0.24

Inquiry: Query: FICI of drug with KL-L9P; subject: CC(=O)Oc1ccccc1C(=O)O [aspirin]
Reply text: 1.59
